Provide the reported Enzyme degradation CDK9 (% remaining) @ 10 μM of each item.
Biological target: CDK9 (Homo sapiens, UniProt P50750)
Construct: endogenous in cells; host or cells: MDA-MB-231
Sequence (P50750 whole entry): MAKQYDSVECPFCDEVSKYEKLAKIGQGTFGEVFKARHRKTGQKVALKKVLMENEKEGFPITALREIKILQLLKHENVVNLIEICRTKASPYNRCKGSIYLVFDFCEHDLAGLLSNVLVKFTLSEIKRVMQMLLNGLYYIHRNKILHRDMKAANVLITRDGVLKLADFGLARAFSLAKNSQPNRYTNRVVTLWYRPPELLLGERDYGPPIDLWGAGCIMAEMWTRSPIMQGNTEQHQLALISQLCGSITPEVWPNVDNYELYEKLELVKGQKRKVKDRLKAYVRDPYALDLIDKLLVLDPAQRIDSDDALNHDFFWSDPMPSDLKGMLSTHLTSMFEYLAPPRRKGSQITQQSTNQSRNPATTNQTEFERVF
Experiment: CDK protein degradation activity (Western blotting), CDK9
Type: cell-based
Settings: MDA-MB-231 cells, 10 μM, 16 hours, Western blot
State just the number; it will be interpreted in %.

Lookup: Supply recorded Enzyme degradation CDK9 (% remaining) @ 10 μM for O=C1CCC(N2C(=O)c3ccc(N4CC(C(=O)N5CCN(C6CN(c7ccc(Nc8ncnc9c8ncn9[C@H]8C[C@@H](NC(=O)Cc9ccccc9)C8)cc7)C6)CC5)C4)cc3C2=O)C(=O)N1 (stereo partly shown) here.
Found: 20

Lookup: Read off the recorded Enzyme degradation CDK9 (% remaining) @ 10 μM for `O=C1CC[C@H](N2C(=O)c3cc(F)c(N4CCC5(CC4)CC(N4CCN(c6ccc(Nc7ncnc8c7ncn8[C@H]7C[C@@H](NC(=O)Cc8ccccc8)C7)cc6)CC4)C5)cc3C2=O)C(=O)N1`
Found: 0

Lookup: Supply reported Enzyme degradation CDK9 (% remaining) @ 10 μM belonging to this molecule: Cc1cccc(C(=O)NC2CC(n3cnc4c(Nc5ccc(N6CCN(C(=O)COc7ccc8c(c7)C(=O)N([C@H]7CCC(=O)NC7=O)C8=O)CC6)cc5)ncnc43)C2)n1 (stereo partly shown)
Found: 10

Lookup: Tell me its Enzyme degradation CDK9 (% remaining) @ 10 μM given Cc1cccc(C(=O)NC2CC(n3cnc4c(NCC5CCN(CC6CCN(c7ccc8c(c7)C(=O)N([C@@H]7CCC(=O)NC7=O)C8=O)CC6)CC5)ncnc43)C2)n1 (stereo partly shown) as the entry.
Found: 10

Lookup: Identify measured Enzyme degradation CDK9 (% remaining) @ 10 μM corresponding to Cc1cccc(C(=O)NC2CC(n3cnc4c(NCCC5CCN(CC6CCN(c7ccc8c(c7)C(=O)N([C@H]7CCC(=O)NC7=O)C8=O)CC6)CC5)ncnc43)C2)n1 (stereo partly shown)
Found: 20
